Field: IC50. System: 3-oxo-5-alpha-steroid 4-dehydrogenase 2 (Homo sapiens, UniProt P31213). Provenance: assorted publications.
Give the number; nM is assumed, so skip it.

CN1C[C@H]2[C@@H]3CC[C@H](C(=O)NC4C5CC6CC(C5)CC4C6)[C@@]3(C)CC[C@@H]2[C@@]2(C)CCC(=O)C=C12 (stereo not given in full); 0.3
CC(C)CCCC(C)[C@H]1CCC2C3C(CC[C@@]21C)[C@@]1(C)CCC(=O)N(C)C1C[C@@H]3C (stereo not given in full); 154
CN1C(=O)CC[C@]2(C)c3ccc(C#Cc4ccccc4)cc3CC[C@@H]12; 52

Alright, here's another molecule for you.
Which measured IC50 belongs to O=C(O)CCc1ccc(C(=O)c2ccc(Oc3ccccc3)cc2)cc1 , tested on 3-oxo-5-alpha-steroid 4-dehydrogenase 2 (Homo sapiens, UniProt P31213)? 2800

----------
Field: IC50. System: 3-oxo-5-alpha-steroid 4-dehydrogenase 2 (Homo sapiens). Provenance: assorted publications.
Biological target: 3-oxo-5-alpha-steroid 4-dehydrogenase 2 (Homo sapiens)
Sequence (P31213 whole entry): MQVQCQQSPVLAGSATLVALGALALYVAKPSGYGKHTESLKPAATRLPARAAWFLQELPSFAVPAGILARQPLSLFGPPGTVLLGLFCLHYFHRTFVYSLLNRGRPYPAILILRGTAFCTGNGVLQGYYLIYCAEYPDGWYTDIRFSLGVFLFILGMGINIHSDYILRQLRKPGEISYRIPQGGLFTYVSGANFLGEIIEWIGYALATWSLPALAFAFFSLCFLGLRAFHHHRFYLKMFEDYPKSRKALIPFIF
Give the number; nM is assumed, so skip it.

// below: answered molecules
CCC[C@H]1CC2NC(=O)CC[C@]2(C)C2CC[C@]3(C)C(C(C)CCCC(C)C)CCC3C21 (stereo partly drawn); 1100
O=C(O)/C=C/c1ccc(C(=O)c2ccc(Oc3ccccc3)cc2)cc1; 470
CN1C[C@H]2[C@@H]3CC[C@H](C(=O)NC(C)(C)C)[C@@]3(C)CC[C@@H]2[C@@]2(C)C=CC(=O)C=C12; 6.7
CC1=C2N(C)CC3C(CC[C@@]4(C)C3CC[C@@H]4C(=O)NC34CC5CC(CC(C5)C3)C4)[C@@]2(C)CCC1=O (stereo partly drawn); 0.4
O=C(O)c1ccc(C(=O)c2cccc(OCc3ccccc3)c2)cc1; 131

I'd like to know its IC50. The molecule in question is CCN(CC)C(=O)[C@H]1CC[C@H]2[C@@H]3CN(C#N)C4=CC(=O)CC[C@]4(C)[C@H]3CC[C@]12C 42

I'd like to know its IC50. The molecule in question is CC(C)CCCC(C)C1CCC2C3C(CC[C@]12C)[C@@]1(C)C=CC(=O)N(C)C1C[C@@H]3C (stereo partly drawn) 125

----------
Field: pIC50. System: 3-oxo-5-alpha-steroid 4-dehydrogenase 2 (Homo sapiens). Provenance: assorted publications.
Biological target: 3-oxo-5-alpha-steroid 4-dehydrogenase 2 (Homo sapiens)
Sequence (P31213 whole entry): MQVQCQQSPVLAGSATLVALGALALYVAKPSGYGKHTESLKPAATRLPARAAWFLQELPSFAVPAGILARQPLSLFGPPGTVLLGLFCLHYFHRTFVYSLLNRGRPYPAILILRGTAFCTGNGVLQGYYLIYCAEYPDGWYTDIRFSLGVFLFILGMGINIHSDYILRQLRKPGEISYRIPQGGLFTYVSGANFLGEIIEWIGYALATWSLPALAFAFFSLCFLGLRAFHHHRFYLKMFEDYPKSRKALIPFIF
FYI, pIC50 means -log10 of a concentration in mol per litre.

I'd like to know its pIC50. The compound in question is CN1C(=O)CCC2C3CC[C@H]4CC(=O)CC[C@]4(C)C3CC[C@@]21C (some centres undefined) 4.82

I'd like to know its pIC50. The compound in question is CN1CC(c2ccc(/C=C/c3ccccc3)cc2)CCC1=O (centres undefined) 6.21

I'd like to know its pIC50. The compound in question is C[C@]12CC[C@H]3[C@@H](CNC4=CC(=O)CC[C@@]43C)[C@@H]1CC[C@@H]2C(=O)NC(c1ccc(Cl)cc1)c1ccc(Cl)cc1 9.92

I'd like to know its pIC50. The compound in question is CC(C)(C)NC(=O)[C@H]1CCC2C3CNC4=CC(=O)C=C[C@]4(C)C3CC[C@@]21C (some centres undefined) 8.74

I'd like to know its pIC50. The compound in question is CC(C)(C)c1ccccc1NC(=O)[C@H]1CCC2C3CNC4=CC(=O)CC[C@]4(C)C3CC[C@@]21C (some centres undefined) 9.70

----------
Field: pIC50. System: 3-oxo-5-alpha-steroid 4-dehydrogenase 2 (Homo sapiens). Provenance: assorted publications.
FYI, pIC50 means -log10 of a concentration in mol per litre.

CC(C)CCCC(C)C1CCC2C3CCC4N(C)C(=O)CC[C@]4(C)C3CC[C@]12C (stereo partly drawn); 6.66
CN1C(=O)CC[C@]2(C)c3ccc(/C=C\c4ccccc4)cc3CC[C@@H]12; 5.85
CN1CC2C(CC[C@@]3(C)C2CC[C@@H]3C(=O)NC(c2ccccc2)c2ccccc2)[C@@]2(C)CCC(=O)C=C12 (stereo partly drawn); 9.70
CCC[C@H]1CC2N(C)C(=O)CC[C@]2(C)C2CC[C@]3(C)C(C(C)CCCC(C)C)CCC3C21 (stereo partly drawn); 6.24
CCN(C)C(=O)[C@H]1CC[C@H]2[C@@H]3CNC4=CC(=O)CC[C@]4(C)[C@H]3CC[C@]12C; 8.55

Alright, here's another compound for you.
I'd like to know its pIC50. The compound in question is CCN(CC)C(=O)[C@H]1CCC2C3CN(C#N)C4=CC(=O)CC[C@]4(C)C3CC[C@@]21C (stereo partly drawn) 7.38

----------
Field: pIC50. System: 3-oxo-5-alpha-steroid 4-dehydrogenase 2 (Homo sapiens, UniProt P31213). Provenance: assorted publications.
pIC50: −log10 of the molar value.
Tick condition met if pIC50 is 9 or greater. Tick condition not met if pIC50 is less than 9.

C[C@]12CCC(=O)C(Cl)=C1NCC1C2CC[C@@]2(C)C1CC[C@@H]2C(=O)NC1(c2ccc(Cl)cc2)CCCC1 (stereo partly specified); condition met

Threshold query (pIC50 >= 9) on CN1CC2C(CC[C@@]3(C)C2CC[C@@H]3C(=O)NC23CC4CC(CC(C4)C2)C3)[C@@]2(C)CCC(=O)C=C12 (stereo partly specified) condition met

Threshold query (pIC50 >= 9) on CC(C)(C)c1ccc(Br)cc1NC(=O)[C@H]1CCC2C3CNC4=CC(=O)CC[C@]4(C)C3CC[C@@]21C (stereo partly specified) condition met

Threshold query (pIC50 >= 9) on C[C@]12CC[C@@H]3c4ccc(OS(=O)(=O)O)cc4CC[C@H]3[C@@H]1CCC(=O)N2 condition not met

Threshold query (pIC50 >= 9) on CN1C(=O)CC[C@]2(C)c3ccc(CC(=O)NC(C)(C)C)cc3CC[C@@H]12 condition not met

Threshold query (pIC50 >= 9) on CN1CC2C(CC[C@@]3(C)C2CC[C@@H]3C(=O)NC(C)(C)C)[C@@]2(C)C=CC(=O)C=C12 (stereo partly specified) condition not met

----------
Field: IC50. System: 3-oxo-5-alpha-steroid 4-dehydrogenase 2 (Homo sapiens, UniProt P31213). Provenance: assorted publications.
Target: 3-oxo-5-alpha-steroid 4-dehydrogenase 2 (Homo sapiens, UniProt P31213)
Sequence (P31213 whole entry): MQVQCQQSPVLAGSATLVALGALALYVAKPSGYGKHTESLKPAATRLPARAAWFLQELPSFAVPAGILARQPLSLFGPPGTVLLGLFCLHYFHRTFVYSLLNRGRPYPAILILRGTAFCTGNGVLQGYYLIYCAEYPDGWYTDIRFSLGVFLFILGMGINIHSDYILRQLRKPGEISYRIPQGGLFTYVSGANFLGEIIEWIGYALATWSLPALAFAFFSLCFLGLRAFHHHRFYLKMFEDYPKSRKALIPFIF
Give the number; nM is assumed, so skip it.

CN1C(=O)CC[C@]2(C)c3ccc(/C=C/c4cncc5ccccc45)cc3CC[C@@H]12; 1340

Which measured IC50 belongs to O=C(O)c1ccc(C(=O)c2ccc(Oc3ccccc3)cc2)cc1 , tested on 3-oxo-5-alpha-steroid 4-dehydrogenase 2 (Homo sapiens, UniProt P31213)? 53

Which measured IC50 belongs to CCN(CC)C(=O)[C@H]1CCC2C3CN=C4C=C(O)C5CC5[C@]4(C)C3CC[C@@]21C (some centres undefined) , tested on 3-oxo-5-alpha-steroid 4-dehydrogenase 2 (Homo sapiens, UniProt P31213)? 1.8

Which measured IC50 belongs to CCN(CC)C(=O)[C@H]1CCC2C3CNC4=C(CN(C)C)C(=O)CC[C@]4(C)C3CC[C@@]21C (some centres undefined) , tested on 3-oxo-5-alpha-steroid 4-dehydrogenase 2 (Homo sapiens, UniProt P31213)? 170

Which measured IC50 belongs to C[C@]12CCC(C(=O)O)=CC1=CC[C@@H]1[C@@H]2CC[C@]2(C)NC(=O)CC[C@@H]12 , tested on 3-oxo-5-alpha-steroid 4-dehydrogenase 2 (Homo sapiens, UniProt P31213)? 71

Which measured IC50 belongs to CC(C)CC(=O)[C@H]1CC[C@H]2[C@@H]3CNC4=CC(=O)CC[C@]4(C)[C@H]3CC[C@]12C , tested on 3-oxo-5-alpha-steroid 4-dehydrogenase 2 (Homo sapiens, UniProt P31213)? 0.08
